The reported numbers originate from the supplement of paper PMC10307832.

Test system: HCC-15
Test: relative viability (nuclei count vs DMSO), 5 days (fraction); higher = more cells survive
Settings: first compound 0.1265 µM
measured endpoint: relative viability
Just the number, please, no unit attached.

- compound: "O=C(O)c1ccc(-c2c[nH]c3ncc(-c4ccccc4)cc23)cc1C1CCCC1 + Nc1nc2[nH]cc(CCc3ccc(C(=O)N[C@@H](CCC(=O)O)C(=O)O)cc3)c2c(=O)[nH]1 [Pemetrexed] (partner 0.2 µM)"
  measured endpoint: "relative viability"
  recorded measurement: 0.227
- compound: "O=C(O)c1ccc(-c2c[nH]c3ncc(-c4ccccc4)cc23)cc1C1CCCC1 + O=C(CCCCCCC(=O)Nc1ccccc1)NO [Vorinostat] (partner 1 µM)"
  measured endpoint: "relative viability"
  recorded measurement: 0.872
- compound: "O=C(O)c1ccc(-c2c[nH]c3ncc(-c4ccccc4)cc23)cc1C1CCCC1 + CS(=O)(=O)N1CCN(Cc2cc3nc(-c4cccc5[nH]ncc45)nc(N4CCOCC4)c3s2)CC1 [Pictilisib] (partner 1 µM)"
  measured endpoint: "relative viability"
  recorded measurement: 0.839

Proceed to the following item.
Task: # get_value(readout='relative viability', item= O=C(O)c1ccc(-c2c[nH]c3ncc(-c4ccccc4)cc23)cc1C1CCCC1 + COc1cc2c(Oc3ccc(NC(=O)C4(C(=O)Nc5ccc(F)cc5)CC4)cc3F)ccnc2cc1OCCCN1CCOCC1 [Foretinib] (partner 0.25 µM) )
Result: 1.04

###

Tested on: NCI-H358
Experiment: relative viability (nuclei count vs DMSO), 5 days (fraction); higher = more cells survive
Conditions: first compound 0.5 µM
// returns -1 unless relative viability is strictly below 0.3, in which case 1

- compound: "CC1(C)CCC(c2ccc(Cl)cc2)=C(CN2CCN(c3ccc(C(=O)NS(=O)(=O)c4ccc(N[C@H](CCN5CCOCC5)CSc5ccccc5)c(S(=O)(=O)C(F)(F)F)c4)cc3)CC2)C1 [Navitoclax] + CS(=O)(=O)N1CCN(Cc2cc3nc(-c4cccc5[nH]ncc45)nc(N4CCOCC4)c3s2)CC1 [Pictilisib] (partner 1 µM)"
  system: "NCI-H358"
  cat: -1
- compound: "CC1(C)CCC(c2ccc(Cl)cc2)=C(CN2CCN(c3ccc(C(=O)NS(=O)(=O)c4ccc(N[C@H](CCN5CCOCC5)CSc5ccccc5)c(S(=O)(=O)C(F)(F)F)c4)cc3)CC2)C1 [Navitoclax] + Nc1ncn([C@H]2C[C@H](O)[C@@H](CO)O2)c(=O)n1 [Decitabine] (partner 2 µM)"
  system: "NCI-H358"
  cat: 1
- compound: "CC1(C)CCC(c2ccc(Cl)cc2)=C(CN2CCN(c3ccc(C(=O)NS(=O)(=O)c4ccc(N[C@H](CCN5CCOCC5)CSc5ccccc5)c(S(=O)(=O)C(F)(F)F)c4)cc3)CC2)C1 [Navitoclax] + COc1cccc2cc(-c3nc([C@H]4CC[C@H](C(=O)O)CC4)n4ncnc(N)c34)[nH]c12 [OSI-027] (partner 0.5 µM)"
  system: "NCI-H358"
  cat: -1
- compound: "CC1(C)CCC(c2ccc(Cl)cc2)=C(CN2CCN(c3ccc(C(=O)NS(=O)(=O)c4ccc(N[C@H](CCN5CCOCC5)CSc5ccccc5)c(S(=O)(=O)C(F)(F)F)c4)cc3)CC2)C1 [Navitoclax] + CS(=O)(=O)CCNCc1ccc(-c2ccc3ncnc(Nc4ccc(OCc5cccc(F)c5)c(Cl)c4)c3c2)o1 [Lapatinib] (partner 2 µM)"
  system: "NCI-H358"
  cat: -1

Task: Threshold test, relative viability < 0.3: CC1(C)CCC(c2ccc(Cl)cc2)=C(CN2CCN(c3ccc(C(=O)NS(=O)(=O)c4ccc(N[C@H](CCN5CCOCC5)CSc5ccccc5)c(S(=O)(=O)C(F)(F)F)c4)cc3)CC2)C1 [Navitoclax] + CC(=O)Nc1cccc(-n2c(=O)n(C3CC3)c(=O)c3c(Nc4ccc(I)cc4F)n(C)c(=O)c(C)c32)c1 [Trametinib] (partner 0.02 µM)
Result: 1

Task: Threshold test, relative viability < 0.3: CC1(C)CCC(c2ccc(Cl)cc2)=C(CN2CCN(c3ccc(C(=O)NS(=O)(=O)c4ccc(N[C@H](CCN5CCOCC5)CSc5ccccc5)c(S(=O)(=O)C(F)(F)F)c4)cc3)CC2)C1 [Navitoclax] + Cc1cc(Nc2cc(N3CCN(C)CC3)nc(Sc3ccc(NC(=O)C4CC4)cc3)n2)n[nH]1 [Tozasertib] (partner 0.1 µM)
Result: 1

Task: Threshold test, relative viability < 0.3: CC1(C)CCC(c2ccc(Cl)cc2)=C(CN2CCN(c3ccc(C(=O)NS(=O)(=O)c4ccc(N[C@H](CCN5CCOCC5)CSc5ccccc5)c(S(=O)(=O)C(F)(F)F)c4)cc3)CC2)C1 [Navitoclax] + C[C@]1(O)C[C@@H](c2nc(-c3ccc4ccc(-c5ccccc5)nc4c3)c3c(N)nccn32)C1 [Linsitinib] (partner 1 µM)
Result: -1
